Where do these numbers come from? They come from paper PMC7893122.

# test.summary: Pharmacokinetics in Sprague–Dawley rats
# Type: in vivo
# condition.set: Sprague-Dawley, rat, plasma, po, 3 mg/kg
For each entry below, report its MRT inf value.
The figure you give is taken to be in h; do not add the unit.

Quick note, MRT inf for Cn1cc(-c2cc(N3CCCS3(=O)=O)ccc2Oc2ccc(F)cc2F)c2c(F)c[nH]c2c1=O landed at 1.26

The value of MRT inf measured for the compound CCNC(=O)c1cc2c(-c3cc(N4CCCS4(=O)=O)ccc3Oc3ccc(F)cc3F)cn(C)c(=O)c2[nH]1 turned out to be 0.89

Data point: CCNC(=O)c1cc2c(-c3cc(N4CCCCS4(=O)=O)ccc3Oc3ccc(F)cc3F)cn(C)c(=O)c2[nH]1 ; MRT inf = 2.38

The value of MRT inf measured for the compound Cn1cc(-c2cc(N3CCCCS3(=O)=O)ccc2Oc2ccc(F)cc2F)c2c(F)c[nH]c2c1=O turned out to be 0.95

MRT inf in this record for CCS(=O)(=O)Nc1ccc(Oc2ccc(F)cc2F)c(-c2cn(C)c(=O)c3[nH]ccc23)c1 [Compound 2, reference compound] : 5.45

====

# assay.system: UniProt:Q12809
# Sequence (Q12809 whole entry): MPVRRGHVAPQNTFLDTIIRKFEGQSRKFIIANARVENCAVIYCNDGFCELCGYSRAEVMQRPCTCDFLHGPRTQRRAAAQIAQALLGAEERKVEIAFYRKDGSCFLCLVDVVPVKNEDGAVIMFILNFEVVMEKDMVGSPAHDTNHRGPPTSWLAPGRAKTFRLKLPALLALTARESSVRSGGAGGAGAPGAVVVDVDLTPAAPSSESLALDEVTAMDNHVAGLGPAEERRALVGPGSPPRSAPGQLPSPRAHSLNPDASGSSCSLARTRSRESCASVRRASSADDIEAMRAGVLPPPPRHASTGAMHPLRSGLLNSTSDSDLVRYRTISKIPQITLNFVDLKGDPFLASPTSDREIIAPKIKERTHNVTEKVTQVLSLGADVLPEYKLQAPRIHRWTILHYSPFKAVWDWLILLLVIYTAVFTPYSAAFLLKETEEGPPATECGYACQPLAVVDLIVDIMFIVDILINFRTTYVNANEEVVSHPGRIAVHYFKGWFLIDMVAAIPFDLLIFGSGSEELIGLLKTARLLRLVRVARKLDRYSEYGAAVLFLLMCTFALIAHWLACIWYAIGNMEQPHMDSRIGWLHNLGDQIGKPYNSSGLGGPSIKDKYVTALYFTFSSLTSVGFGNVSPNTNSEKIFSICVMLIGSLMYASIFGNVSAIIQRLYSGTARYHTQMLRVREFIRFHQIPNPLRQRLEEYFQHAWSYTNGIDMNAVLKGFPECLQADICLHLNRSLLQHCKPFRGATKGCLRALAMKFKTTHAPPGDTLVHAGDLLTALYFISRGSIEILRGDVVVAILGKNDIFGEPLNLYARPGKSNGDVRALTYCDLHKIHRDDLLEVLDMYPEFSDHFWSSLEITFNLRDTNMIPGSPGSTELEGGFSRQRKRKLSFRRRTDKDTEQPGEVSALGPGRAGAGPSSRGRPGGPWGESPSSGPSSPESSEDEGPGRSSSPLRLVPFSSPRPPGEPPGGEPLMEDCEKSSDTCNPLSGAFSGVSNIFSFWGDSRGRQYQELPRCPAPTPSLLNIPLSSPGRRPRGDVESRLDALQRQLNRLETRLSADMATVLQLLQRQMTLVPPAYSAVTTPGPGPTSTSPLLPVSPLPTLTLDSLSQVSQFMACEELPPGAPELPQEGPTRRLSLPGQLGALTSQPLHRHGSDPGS
# test.summary: hERG inhibition
assay.endpoint: IC50

Just so you know, measured IC50 for Cn1cc(-c2cc(N3CCCS3(=O)=O)ccc2Oc2ccc(F)cc2F)c2cc(C(N)=O)[nH]c2c1=O came out at > 40 µM

The compound identified as CCNC(=O)c1cc2c(-c3cc(N4CCCCS4(=O)=O)ccc3Oc3ccc(F)cc3F)cn(C)c(=O)c2[nH]1 registered its IC50 at 11.7 µM

Please fill in: IC50 reported for Cn1cc(-c2cc(N3CCCCS3(=O)=O)ccc2Oc2ccc(F)cc2F)c2c(F)c[nH]c2c1=O = 27.3 µM

Item: CCNC(=O)c1cc2c(-c3cc(N4CCCS4(=O)=O)ccc3Oc3ccc(F)cc3F)cn(C)c(=O)c2[nH]1 | IC50: 6.4 µM

Query CCS(=O)(=O)Nc1ccc(Oc2ccc(F)cc2F)c(-c2cn(C)c(=O)c3[nH]ccc23)c1 [Compound 2, reference compound] yields IC50 of 35.5 µM

The recorded IC50 for Cn1cc(-c2cc(N3CCCS3(=O)=O)ccc2Oc2ccc(F)cc2F)c2c(F)c[nH]c2c1=O is > 40 µM

====

Exercise: for every item that follows, state its recorded half-life.
# test.summary: Pharmacokinetics in Sprague–Dawley rats
# Assay type: in vivo
# condition.set: Sprague-Dawley, rat, plasma, iv, 1 mg/kg

The compound listed as CCNC(=O)c1cc2c(-c3cc(N4CCCCS4(=O)=O)ccc3Oc3ccc(F)cc3F)cn(C)c(=O)c2[nH]1 [Compound 31] has a reported half-life of 41.4 min

The value of half-life measured for the compound CCNC(=O)c1cc2c(-c3cc(N4CCCS4(=O)=O)ccc3Oc3ccc(F)cc3F)cn(C)c(=O)c2[nH]1 [Compound 30] turned out to be 40.8 min

Reported half-life of Cn1cc(-c2cc(N3CCCCS3(=O)=O)ccc2Oc2ccc(F)cc2F)c2c(F)c[nH]c2c1=O [Compound 25] : 32.4 min

For reference, reported half-life for CCS(=O)(=O)Nc1ccc(Oc2ccc(F)cc2F)c(-c2cn(C)c(=O)c3[nH]ccc23)c1 [Compound 2, reference compound] stands at 164 min

half-life in this record for Cn1cc(-c2cc(N3CCCS3(=O)=O)ccc2Oc2ccc(F)cc2F)c2c(F)c[nH]c2c1=O [Compound 24] : 33.6 min
